Experiment: Inhibition of platelet aggregation in human-platelet rich plasma(h-PRP) induced by collagen
Format: functional
pIC50: −log10 of the molar value. Peptide text beside a SMILES is read from it.
Parameter: pIC50

Check out these entries, answers already filled in.
In [3]: df
Out[3]:
                                   compound  parameter  readout_value
0  N=C(N)c1ccc(C(=O)N2CCC[C@H]2C(=O)N2CCC(OCC(=O)O)CC2)cc1      pIC50           6.96
1  N=C(N)c1ccc(C(=O)NCCC(=O)N[C@@H](CC(=O)O)C(=O)N[C@@H](Cc2ccc(O)cc2)C(=O)O)cc1      pIC50           7.40
2  N=C(N)c1ccc(C(=O)N[C@@H](Cc2ccc(O)cc2)C(=O)N2CCC(OCC(=O)O)CC2)cc1      pIC50           7.70
3  CC(C)[C@H](NC(=O)[C@H](CC(=O)O)NC(=O)CNC(=O)CCc1ccc(C(=N)N)cc1)C(=O)O      pIC50           5.64
4  N=C(N)NCCC[C@H](N)C(=O)NCC(=O)N[C@@H](CC(=O)O)C(=O)N[C@@H](CO)C(=O)O      pIC50           3.85

1: N=C(N)NCCC[C@H](N)C(=O)NCC(=O)N[C@@H](CC(=O)O)C(=O)N[C@@H](Cc1ccccc1)C(=O)O (H-RGDF-OH)
2: C[C@H](NC(=O)c1ccc(C(=N)N)cc1)C(=O)N1CCC(OCC(=O)O)CC1
Req: Which value of pIC50 is greater, the one for 1 or the one for 2 ? Please indicate the selected item by its label.
Resp: 2
(2: 7.15, 1: 4.42)

---

System: Integrin alpha-V/beta-3 (Homo sapiens) (UniProt P05106+P06756)
Experiment: Inhibition of fibrinogen binding to immobilized vitronectin receptor
Assay type: protein-complex assay
Design: reference not given here
Square brackets hold non-standard residues; d marks the D form. Peptide text beside a SMILES is read from it. * marks the point of attachment. 3Abz = Nc1cccc(C(=O)O)c1; Boc = CC(C)(C)OC(=O)*
Parameter: Ratio

Reference set, count: 5
                                   compound  parameter  readout_value
0  CC(C)[C@H](NC(=O)[C@H](CC(=O)O)NC(=O)c1cccc(NC(=O)[C@H](CCCN=C(N)N)NC(=O)OC(C)(C)C)c1)C(=O)O (Boc-R[3Abz]DV-OH)      Ratio            250
1  N=C(N)c1ccc(C(=O)NCC(=O)c2ccc(OCC(=O)O)cc2)cc1      Ratio           8400
2  N=C(N)c1ccc(C(=O)N[C@@H](Cc2ccc(O)cc2)C(=O)N2CCC(OCC(=O)O)CC2)cc1      Ratio          17500
3  CC(C)[C@H](NC(=O)[C@H](CC(=O)O)NC(=O)CNC(=O)[C@@H](N)CCCNC(=N)N)C(=O)O (H-RGDV-OH)      Ratio            0.6
4  C[C@@]1(C(=O)N2CCC(OCC(=O)O)CC2)CCCN1C(=O)c1ccc(C(=N)N)cc1      Ratio          12000

P: N=C(N)c1ccc(CC(N)C(=O)Nc2cccc(C(=O)NCCC(=O)O)c2)cc1 (stereo not drawn)
Q: CC(C)[C@H](NC(=O)[C@H](CC(=O)O)NC(=O)CCCNC(=O)c1ccc(C(=N)N)cc1)C(=O)O
Req: Between P and Q , which one shows the smaller Ratio number? Give the label under which the chosen entry appears.
Resp: Q

1: CC(C)[C@H](NC(=O)[C@H](CC(=O)O)NC(=O)CNC(=O)COc1ccc(C(=N)N)cc1)C(=O)O
2: COC(=O)COc1ccc(CCNC(=O)c2ccc(C(=N)N)cc2)cc1
Req: Returns the identifier with the smallest measured Ratio among 1 and 2 . I would appreciate it if you answered with the label of your choice.
Resp: 1
(1: 700, 2: 2300)

A: CN(CC(=O)c1ccc(OCC(=O)O)c(OCC(=O)O)c1)C(=O)c1ccc(C(=N)N)cc1
B: N=C(N)c1ccc(C(=O)Nc2cccc(C(=O)NCCC(=O)O)c2)cc1
C: N=C(N)c1ccc(C(=O)NCCc2ccc(OCC(=O)O)cc2)cc1
Req: Order these by Ratio, descending, and give the full ranking. Reply: labels, ordered per the request.
Resp: A, B, C
(A: 37000, B: 8000, C: 1300)

I: CC(C)[C@H](NC(=O)[C@H](CC(=O)O)NC(=O)CNC(=O)Cc1ccc(C(=N)N)cc1)C(=O)O
II: C[C@@H](Cc1ccc(OCC(=O)O)cc1)NS(=O)(=O)c1ccc(C(=N)N)cc1
Req: # min-compare on Ratio between I and II Use the label to indicate which entry you chose.
Resp: I
(I: 560, II: 1700)
